system: CAMK1B; conditions: concentration: 1 μM, replicates: in singlicate; n = 1
experimental endpoint: %Inh (%)
Your answer is read as %, so omit the unit and give the number.

These recorded examples may help you get a feel for the data.
COc1ccc(CNC(=O)NC2CCN(c3ccnc(Nc4cc(OC)c(OC)c(OC)c4)n3)C2)cc1 (centres unmarked) [GSK1379748] | 2
Cc1cccc(-c2nc(C)cc(Nc3ccncc3)n2)n1 [GSK257997] | 12
COc1cccc(-c2cc(-c3c[nH]nc3-c3ccccn3)ccn2)c1 [GW680338] | 22
O=C1NC(=O)C(N2CCc3ccccc32)=C1c1ccccc1Cl [SB-373598] | 41

%Inh in this record for COc1cc2ncn(-c3cc(OCC4CCCO4)c(C(N)=O)s3)c2cc1OC (centres unmarked) [GSK204607] : 0

* * *

Reported %Inh is given for each of the following compounds.
test system: FLT3; details: concentration: 1 μM, replicates: in singlicate; n = 1

Here is how some compounds turned out for %Inh.
Cc1ccc(NC(=O)Nc2cccc(Cl)c2)cc1-c1ccc(C(=O)Nc2ccncc2)cc1 | 1%
Nc1ncnc2[nH]c(-c3ccccc3)nc12 | 0%

For reference, reported %Inh for Fc1cc(Cl)ccc1Nc1ccnc2cc(I)ccc12 stands at 0%

For this compound ( Cc1ccc(-c2cc(-c3c[nH]nc3-c3ccccn3)ccn2)cc1 ), measured %Inh is 0%

Entry Cc1cccc(-c2nc(Nc3ccncc3)c3ccccc3n2)n1 — recorded %Inh = 0%

* * *

test system: MAP4K2; details: concentration: 1 μM, replicates: in singlicate; n = 1
experimental endpoint: %Inh

Cn1cncc1-c1ccc2ncnc(Nc3ccc(OCc4ccccc4)cc3)c2c1 [GW320571] | 0%
CN1C(=O)C(Nc2ccc(Cl)c(C(=O)O)c2)=C(c2ccc(Cl)cc2)C1=O [SB-404290] | 21%
CS(=O)(=O)c1ccc(-c2nc3n(c2-c2ccncc2)CCC3)cc1 [SKF-105942] | 0%

The reported %Inh of the compound Cc1cc(-c2ccc3c(c2)CC[C@@H](N[C@@H](C)c2ccccc2)C3)cnc1N.Cl [GW412617] was 97.4%

// %Inh lookup, compound = Cc1cc(N2Cc3ccccc3C2)nc(Nc2ccc(S(=O)(=O)N3CCOCC3)cc2)n1.Cl [GSK1669917] , result: 0%

Recorded %Inh (compound Cl.NC(=O)c1cccc(Nc2nccc(Nc3ccc(Oc4cccc(Cl)c4)c(Cl)c3)n2)c1 [GW659008] ): 0%

* * *

Reported Kd values are given for each entry in this list.
system: ROCK1;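 further: kd values determined as follow-up on hits from a single-replicate KINOMEscan panel screen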
Unit nM implied. Number only.

CSc1nn2c(=O)cc(N3CCOCC3)nc2n1Cc1cccc(C(F)(F)F)c1C | 46
O=S(=O)(c1ccc(-c2ccnc3[nH]ccc23)cc1)N1CCCC1 | 330

Now look at this entry.
Record CC1=C(C(=O)Nc2cc3cn[nH]c3cc2F)C(c2ccc(C(F)(F)F)cc2)CC(=O)N1 (stereo not drawn) / ROCK1, Kd recorded as 2.7

* * *

system: GAK; details: concentration: 1 μM, replicates: in singlicate; n = 1
experimental endpoint: %Inh (%)
Give the quantity in %, number only.

compound Cc1cccc(-c2nc(Nc3cccc(C(N)=O)c3)c3ccccc3n2)n1 , %Inh observed: 0

Recorded %Inh (compound Fc1cccc(COc2nnc(-c3ccc4c(c3)CCO4)o2)c1 ): 2

Given item O=C(O)COc1ncnc2cc(-c3ccc4[nH]ncc4c3)sc12 , the value recorded as its %Inh is 4

What the record says about Cc1cc(NCC(c2ccccc2)c2ccccc2)nc(NCc2ccc(C(F)(F)F)cc2)n1 : %Inh is 0

Record Cc1c(O)cccc1Nc1ccnc2ccc(C(F)(F)F)cc12.Cl , field %Inh: 64

Briefly, %Inh measured for COc1cc2ncn(-c3cc(OCC4CCCO4)c(C(N)=O)s3)c2cc1OC (stereo not drawn) : 53

Item: CC(C)(C)c1ccc(C(=O)Nc2cn3cc(-c4cccnc4)ccc3n2)cc1 | %Inh: 18

Kindly note the recorded %Inh for Fc1cc(Cl)ccc1Nc1ccnc2cc(I)ccc12 , which is 82

get_value(item= CC1=C(C(=O)Nc2cc3cn[nH]c3cc2F)C(c2ccc(C(F)(F)F)cc2)CC(=O)N1 (stereo not drawn) , readout=%Inh) returns 0

* * *

tested on: EPHB1; conditions: concentration: 1 μM, replicates: in singlicate; n = 1
// map %Inh to label using Low: < 3%; Medium: ≥ 3% and < 7%; High: ≥ 7%

Cn1ccc2ncnc(Oc3cccc(C(=O)Nc4ccccc4)c3)c21 | Low
CCCc1ccc(S(=O)(=O)NC2CCN(c3ccnc(Nc4ccc(F)cc4)n3)C2)cc1 (stereo not shown) [GSK1379715] | Low

Task item: Place this compound in its band: Cc1cccc(-c2cc(Nc3ccncc3)c3ccccc3n2)n1 [GSK223675]
Reply: Medium

Task item: Which %Inh category applies to COC(=O)c1c(-c2ccccc2)c2cc(C(=O)O)ccc2c(=O)n1Cc1ccccc1 here?
Reply: Medium

Task item: Form: Item = Cc1ccc(-c2cc(-c3c[nH]nc3-c3ccccn3)ccn2)cc1 [GW684088] ; Class = ?
Reply: High

Task item: Band of COc1cc2nccc(Nc3ccc(NC(=O)c4ccc(C)cc4)c(O)c3)c2cc1OC.Cl [GW440132] ?
Reply: Medium

Task item: Would you mind sorting Cc1cc(N2Cc3ccccc3C2)nc(Nc2ccc(S(=O)(=O)N3CCOCC3)cc2)n1.Cl [GSK1669917] into the appropriate category?
Reply: Low

Task item: Which bin should I file Cc1cccc(-c2nc(C)cc(Nc3ccncc3)n2)n1 [GSK257997] under?
Reply: High

Task item: Categorize the following entry: O=C(Nc1ccccc1)Nc1cccc(Oc2ccc3nccn3n2)c1
Reply: Low

Task item: // bin(item) where item = Cc1cc(NCC(c2ccccc2)c2ccccc2)nc(NCc2ccc(C(F)(F)F)cc2)n1 [GW497681]
Reply: Low

Task item: Please report the category associated with COc1cc2ncn(-c3cc(OCC4CCCO4)c(C(N)=O)s3)c2cc1OC (stereo not shown) [GSK204607] , nothing else.
Reply: High

Task item: Lab note: sort CC(=O)Nc1nc2cnc(Nc3cc(NC(=O)c4cccc(CCC#N)c4)ccc3C)nc2s1 into the matching %Inh band.
Reply: Medium

Task item: Entry Cc1ccc(NC(=O)Nc2cccc(Cl)c2)cc1-c1ccc(C(=O)Nc2ccncc2)cc1 [GSK1398468] belongs to which category?
Reply: High

Task item: # bin label for Cc1c(Cn2ccn3c(=O)cc(N4CCOCC4)nc23)cccc1C(F)(F)F [GSK2289044]
Reply: High

Task item: Pick a category. Item: C[C@@H]1CCCCN1c1cc(-c2ccc3c(N)n[nH]c3c2)nc(N)n1 [GSK2258759]
Reply: High

Task item: For the record Cc1ccccc1-n1cnc2c(N)ncnc21 [SKF-97510] , report the class its %Inh corresponds to.
Reply: Low

* * *

tested on: PLK1; settings: concentration: 1 μM, replicates: in singlicate; n = 1
experimental endpoint: %Inh (%)
Form entry: value (%) — number only.

Before answering, review these 6 worked examples.
CCn1c(-c2ccccn2)nc2cnccc21 | 0
CCCc1ccc(S(=O)(=O)NC2CCN(c3ccnc(Nc4ccc(F)cc4)n3)C2)cc1 (stereo not drawn) | 0
Cc1cccc(-c2nc(-c3ccc(S(C)(=O)=O)cc3)sc2-c2ccnc(NCCc3ccccc3)c2)c1 | 0
Cc1cccc(-c2nc(Nc3ccc4[nH]ncc4c3)c3ccccc3n2)n1 | 11
Cc1c(O)cccc1Nc1ccnc2ccc(C(F)(F)F)cc12.Cl | 0
Cn1cncc1-c1ccc2ncnc(Nc3ccc(OCc4ccccc4)cc3)c2c1 | 9

%Inh reading for O=C(Nc1n[nH]c2nc(-c3nccs3)c(Br)cc12)C1CC1 : 0

Given item CC1=C(C(=O)Nc2cc3cn[nH]c3cc2F)C(c2ccc(C(F)(F)F)cc2)CC(=O)N1 (stereo not drawn) , the value recorded as its %Inh is 0

// recorded %Inh for Cl.NC(=O)c1cccc(Nc2nccc(Nc3ccc(Oc4cccc(Cl)c4)c(Cl)c3)n2)c1 : 5

* * *

Reported %Inh is given for each of the following compounds.
test system: ERBB2; settings: concentration: 1 μM, replicates: in singlicate; n = 1
Please respond with the number in % and leave the unit unwritten.

Solved entries (count: 3):
COc1cccc(-c2cc(-c3c[nH]nc3-c3ccccn3)ccn2)c1 | 5
Cc1c(O)cccc1Nc1ccnc2ccc(C(F)(F)F)cc12.Cl | 35
Clc1cc(Cl)cc(Nc2ccnc(Nc3cc(Cl)cc(Cl)c3)n2)c1 | 22

Cn1ccc2ncnc(Oc3cccc(C(=O)Nc4ccccc4)c3)c21 yielded %Inh of 18

* * *

test system: JAK3(JH1domain-catalytic); details: concentration: 1 μM, replicates: in singlicate; n = 1
Reported %Inh values for the following compounds.
Response body: numeric value in %, unit text excluded.

Examples from the recorded data:
Cl.NC(=O)c1cccc(Nc2nccc(Nc3ccc(Oc4cccc(Cl)c4)c(Cl)c3)n2)c1 | 0
CCCc1ccc(S(=O)(=O)NC2CCN(c3ccnc(Nc4ccc(F)cc4)n3)C2)cc1 (stereo not drawn) | 0
Cl.Oc1ccc(-c2nc(-c3ccccc3)[nH]c2-c2ccncc2)cc1 | 0

Next compound, please.
Form: compound = C[C@@H]1CCCCN1c1cc(-c2ccc3c(N)n[nH]c3c2)nc(N)n1 ; %Inh = 0
